System: Escherichia coli
Assay: Antibacterial activity against Escherichia coli ATCC 25922 incubated for 16 to 20 hrs in presence of 10% foetal bovine serum by broth microdilution method
Assay type: functional
Details: time 16-20 hrs
Catalogue of compounds with associated MIC
observable: MIC (mg/L)

{"record.smiles": "C[C@@H](O)[C@H]1C(=O)N2C(C(=O)O)=C(S[C@@H]3CN[C@H](C(=O)N(C)C)C3)[C@H](C)[C@H]12", "target.system": "Escherichia coli", "qualifying.sign": "<", "endpoint.result": 0.0625}
{"record.smiles": "CC[C@H]1OC(=O)C[C@@H](O)[C@H](C)[C@@H](O[C@@H]2O[C@H](C)[C@@H](O)[C@H](N(C)C)[C@H]2O)[C@@H](CCN2CCCCC2)C[C@@H](C)C(=O)/C=C/C(C)=C/[C@@H]1CN1CCCCC1", "target.system": "Escherichia coli", "qualifying.sign": "=", "endpoint.result": 2}
{"record.smiles": "CC[C@H]1OC(=O)C[C@@H](O)[C@H](C)[C@@H](O[C@@H]2O[C@H](C)[C@@H](O)[C@H](N(C)C)[C@H]2O)[C@@H](CCN(C)Cc2cn(-c3cnc4ccccc4c3)nn2)C[C@@H](C)C(=O)/C=C/C(C)=C/[C@@H]1CN1CCCCCC1", "target.system": "Escherichia coli", "qualifying.sign": "=", "endpoint.result": 2}
{"record.smiles": "CC[C@H]1OC(=O)C[C@@H](O)[C@H](C)[C@@H](O[C@@H]2O[C@H](C)[C@@H](O[C@H]3C[C@@](C)(O)[C@@H](O)[C@H](C)O3)[C@H](N(C)C)[C@H]2O)[C@@H](CC=O)C[C@@H](C)C(=O)/C=C/C(C)=C/[C@@H]1CO[C@@H]1O[C@H](C)[C@@H](O)[C@@H](OC)[C@H]1OC", "target.system": "Escherichia coli", "qualifying.sign": ">", "endpoint.result": 32}

Reference source: ChEMBL document CHEMBL5126592
